Molecular target: hOAT (Homo sapiens)
Sequence (P04181 26-439): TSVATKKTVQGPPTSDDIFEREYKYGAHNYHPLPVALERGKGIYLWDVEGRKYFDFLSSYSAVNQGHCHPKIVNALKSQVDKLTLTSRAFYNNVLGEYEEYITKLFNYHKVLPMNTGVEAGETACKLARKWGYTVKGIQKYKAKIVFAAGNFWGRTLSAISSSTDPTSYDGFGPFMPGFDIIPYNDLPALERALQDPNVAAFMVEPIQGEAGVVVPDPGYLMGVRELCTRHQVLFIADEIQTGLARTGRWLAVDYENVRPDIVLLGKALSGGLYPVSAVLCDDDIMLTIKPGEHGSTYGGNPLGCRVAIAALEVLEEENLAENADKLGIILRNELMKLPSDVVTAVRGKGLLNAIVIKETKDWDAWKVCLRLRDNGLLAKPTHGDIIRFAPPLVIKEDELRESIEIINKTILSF
Assay: Time-dependent inactivation kinetics of hOAT
Assay type: biochemical
Conditions: hOAT inactivation; mean and standard error
Measurement label: pKi
Interpret pKi as the negative base-10 log of the concentration measured in mol/L.

Ask: For the molecule N[C@H]1C[C@@H](C(=O)O)CC1=C(C(F)(F)F)C(F)(F)F , report pKi.
Reply: 4.05

* * *

// reported Ki for each item listed
Target: hOAT (Homo sapiens)
Assay: Time-dependent inactivation kinetics of hOAT
Format: biochemical
Supply the numeric figure in µM, leaving out any unit text.

Compound | Measurement label | Units text | Number
N[C@H]1C[C@@H](C(=O)O)CC1(F)F [Compound 4] | Ki | µM | 4000

# context switch: different compound, same Ki
Ask: Assign Ki to the following record: N[C@H]1C=C(C(=O)O)CC1(F)F [Compound 6]
Reply: 60

Entry source: paper PMC8367020
